Experiment: Chemical stability of the compound assessed as compound remaining after 24 hrs PBS buffer by HPLC analysis at pH 5.5
Type: physicochemical
Conditions: read-out: Activity
endpoint_name: remaining at 24 h (%)

1) C[C@@H](O)[C@H]1C(=O)N2C(C(=O)O)=C(SCCN=CN)C[C@H]12 [IMIPENEM ANHYDROUS] = 30.5
2) Cc1onc(-c2ccccc2)c1C(=O)N[C@@H]1C(=O)N2[C@@H]1SC(C)(C)[C@@H]2C(=O)O [OXACILLIN] = 91.8
3) C[C@@H](O)[C@H]1C(=O)N2C(C(=O)O)=C(S[C@@H]3CN[C@H](C(=O)N(C)C)C3)[C@H](C)[C@H]12 [MEROPENEM] = 40.3
4) Cc1onc(-c2ccccc2Cl)c1C(=O)N[C@@H]1C(=O)N2[C@@H]1SC(C)(C)[C@@H]2C(=O)O [CLOXACILLIN] = 93.3

###

Test: Chemical stability of the compound assessed as compound remaining after 24 hrs in PBS buffer by HPLC analysis at pH 7.4
Assay type: physicochemical
Settings: read-out: Activity
Item-by-item account of remaining at 24 h
endpoint_name: remaining at 24 h (%)

1) C[C@@H](O)[C@H]1C(=O)N2C(C(=O)O)=C(SCCN=CN)C[C@H]12 [IMIPENEM ANHYDROUS] = 39.3
2) C[C@@H](O)[C@H]1C(=O)N2C(C(=O)O)=C(S[C@@H]3CN[C@H](C(=O)N(C)C)C3)[C@H](C)[C@H]12 = 49.3
3) Cc1onc(-c2ccccc2)c1C(=O)N[C@@H]1C(=O)N2[C@@H]1SC(C)(C)[C@@H]2C(=O)O = 94.2
4) Cc1onc(-c2ccccc2Cl)c1C(=O)N[C@@H]1C(=O)N2[C@@H]1SC(C)(C)[C@@H]2C(=O)O = 97.8

###

System: THP-1
Assay: Ratio of intracellular to extracellular drug level in human THP1 cells at 250 mg/L after 24 hrs
Assay type: ADME, cell-based
Settings: thp-1, 24 h
Item-by-item account of Ratio
endpoint_name: Ratio

1) Cc1onc(-c2ccccc2Cl)c1C(=O)N[C@@H]1C(=O)N2[C@@H]1SC(C)(C)[C@@H]2C(=O)O = 0.28
2) C[C@@H](O)[C@H]1C(=O)N2C(C(=O)O)=C(SCCN=CN)C[C@H]12 [IMIPENEM ANHYDROUS] = 0.05
3) C[C@@H](O)[C@H]1C(=O)N2C(C(=O)O)=C(S[C@@H]3CN[C@H](C(=O)N(C)C)C3)[C@H](C)[C@H]12 = 0.2
4) Cc1onc(-c2ccccc2)c1C(=O)N[C@@H]1C(=O)N2[C@@H]1SC(C)(C)[C@@H]2C(=O)O = 0.2
